Target: UCP1 (Homo sapiens)
Construct: His8 (N, cleaved yes); Factor Xa protease cleavage site (N, cleaved yes); made in house; host or cells: Saccharomyces cerevisiae strain W303.1B
Sequence (P25874 1-307): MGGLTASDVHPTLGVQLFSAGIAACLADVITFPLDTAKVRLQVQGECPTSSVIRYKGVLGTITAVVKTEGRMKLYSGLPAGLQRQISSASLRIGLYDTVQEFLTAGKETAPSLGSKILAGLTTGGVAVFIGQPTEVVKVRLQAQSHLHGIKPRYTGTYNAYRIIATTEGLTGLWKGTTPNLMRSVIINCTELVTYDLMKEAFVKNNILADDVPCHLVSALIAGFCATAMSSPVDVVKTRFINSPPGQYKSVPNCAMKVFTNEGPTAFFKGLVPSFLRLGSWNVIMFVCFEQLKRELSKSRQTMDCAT
Assay: Isothermal titration calorimetry of nucleotide binding;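 note: purified human UCP1 in cacodylate buffer with lauryl maltose neopentyl glycol and cardiolipin, titrated with nucleotides, isotherms fitted by one-site model yielding ΔH, Kd and stoichiometry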
Parameters: unit not given here
Details: Molar ratio (Nucleotide/UCP) 0.943214; representative isotherm, pH 6.0, 20 °C
result_type: isotherm data point (enthalpy change per injection)

Would you please look over these solved cases?
Exercise: What value of isotherm data point (enthalpy change per injection) has been recorded for this entry: Nc1ccn(C2OC(COP(=O)(O)OP(=O)(O)OP(=O)(O)O)C(O)C2O)c(=O)n1 (centres unmarked)
Key: -8.027

Exercise: What value of isotherm data point (enthalpy change per injection) has been recorded for this entry: O=c1ccn([C@@H]2O[C@H](CO[P@@](=O)(O)O[P@@](=O)(O)OP(=O)(O)O)[C@@H](O)[C@H]2O)c(=O)[nH]1 (stereo in doubt) [UTP, uridine triphosphate]
Key: -7.729

[I] Nc1nc2c(ncn2[C@@H]2O[C@H](COP(=O)(O)OP(=O)(O)OP(=O)(O)O)[C@@H](O)[C@H]2O)c(=O)[nH]1 [GTP, guanosine triphosphate]
[II] Nc1ncnc2c1ncn2[C@@H]1O[C@H](COP(=O)(O)OP(=O)(O)OP(=O)(O)O)[C@@H](O)[C@H]1O [ATP, adenosine triphosphate]
Exercise: Would you mind telling me which has the lower recorded isotherm data point (enthalpy change per injection) between I and II ? // output: label of the selected item
Key: II
